# System: Human alphaherpesvirus 1
# RUN_DESCRIPTION: In vitro ability to inhibit synthesis of herpes simplex virus (HSV) DNA in isolated nuclei at dose 100 ug/mL
REPORTED_METRIC: inhibition at 100 µg/mL (%)
Just the number please, in %, no unit attached.

Known results for compounds:
COMPOUND: Cl.Cl.Cn1cc(NC(=O)c2cc(NC(=O)c3cc(NC=O)cn3C)cn2C)cc1C(=O)NCCC(=N)N
UNITS: %
MEASUREMENT: 89
//
COMPOUND: Cl.Cl.Cn1cc(NC(=O)c2cc(NC(=O)c3cc(NC(=O)CN=C(N)N)cn3C)cn2C)cc1C(=O)NCCC(=N)N
UNITS: %
MEASUREMENT: 92
//
COMPOUND: CC(CC(=N)N)NC(=O)c1cc(NC(=O)c2cc(NC(=O)c3cc(NC(=O)CN=C(N)N)cn3C)cn2C)cn1C.Cl.Cl (centres undefined)
UNITS: %
MEASUREMENT: 83

# evaluate next
Value lookup for inhibition at 100 µg/mL; key = Cl.Cl.Cn1cc(NC(=O)c2cc(NC(=O)CNC(=N)N)cn2C)cc1C(=O)NCCC(=N)N
61

---

# Tested on: Human alphaherpesvirus 1
# RUN_DESCRIPTION: In vitro ability to inhibit synthesis of herpes simplex virus (HSV) DNA in isolated nuclei at dose 200 ug/mL
Reported inhibition at 200 µg/mL by item:
Just the number please, in %, no unit attached.

Known results for compounds:
COMPOUND: Cl.Cl.Cn1cc(NC(=O)c2cc(NC(=O)c3cc(NC(=O)CN=C(N)N)cn3C)cn2C)cc1C(=O)NCCC(=N)N
TESTED_ON: Human alphaherpesvirus 1
MEASUREMENT: 97

COMPOUND: CC(CC(=N)N)NC(=O)c1cc(NC(=O)c2cc(NC(=O)c3cc(NC(=O)CN=C(N)N)cn3C)cn2C)cn1C.Cl.Cl (stereo not given)
TESTED_ON: Human alphaherpesvirus 1
MEASUREMENT: 91

COMPOUND: Cl.Cn1cc(NC(=O)c2cc(NC(=O)c3cc(NC(=O)CN=C(N)N)cn3C)cn2C)cc1C(=O)NCCC#N
TESTED_ON: Human alphaherpesvirus 1
MEASUREMENT: 87

COMPOUND: Cl.Cl.Cn1cc(NC(=O)c2cc(NC(=O)CNC(=N)N)cn2C)cc1C(=O)NCCC(=N)N
TESTED_ON: Human alphaherpesvirus 1
MEASUREMENT: 71

Value lookup for inhibition at 200 µg/mL; key = Cl.Cl.Cn1cc(NC(=O)c2cc(NC(=O)c3cc(NC=O)cn3C)cn2C)cc1C(=O)NCCC(=N)N
95

---

# Test system: Nucleic Acid
# RUN_DESCRIPTION: In vitro ability to inhibit HSV DNA polymerase activity in vitro using activated calf thymus DNA as atemplate at dose 200 ug/mL
# Format: nucleic-acid assay
# ASSAY_SETUP: herpes simplex virus
Reported inhibition by item:
Just the number please, in %, no unit attached.

Known results for compounds:
COMPOUND: Cl.Cn1cc(NC(=O)c2cc(NC(=O)c3cc(NC(=O)CN=C(N)N)cn3C)cn2C)cc1C(=O)NCCC#N
REPORTED_METRIC: inhibition
UNITS: %
MEASUREMENT: 79
--
COMPOUND: Cl.Cl.Cn1cc(NC(=O)c2cc(NC(=O)c3cc(NC=O)cn3C)cn2C)cc1C(=O)NCCC(=N)N
REPORTED_METRIC: inhibition
UNITS: %
MEASUREMENT: 98
--
COMPOUND: Cl.Cl.Cn1cc(NC(=O)c2cc(NC(=O)CNC(=N)N)cn2C)cc1C(=O)NCCC(=N)N
REPORTED_METRIC: inhibition
UNITS: %
MEASUREMENT: 90
--
COMPOUND: Cl.Cl.Cn1cc(NC(=O)c2cc(NC(=O)c3cc(NC(=O)CN=C(N)N)cn3C)cn2C)cc1C(=O)NCC(=N)N
REPORTED_METRIC: inhibition
UNITS: %
MEASUREMENT: 99
--
COMPOUND: CC(CC(=N)N)NC(=O)c1cc(NC(=O)c2cc(NC(=O)c3cc(NC(=O)CN=C(N)N)cn3C)cn2C)cn1C.Cl.Cl (stereo unspecified)
REPORTED_METRIC: inhibition
UNITS: %
MEASUREMENT: 96

# evaluate next
Value lookup for inhibition; key = Cl.Cl.Cn1cc(NC(=O)c2cc(NC(=O)c3cc(NC(=O)CN=C(N)N)cn3C)cn2C)cc1C(=O)NCCC(=N)N
94

---

# System: Human alphaherpesvirus 1
# RUN_DESCRIPTION: In vitro ability to inhibit synthesis of herpes simplex virus (HSV) DNA in isolated nuclei at dose 50 ug/mL
REPORTED_METRIC: inhibition at 50 µg/mL

Known results for molecules:
MOLECULE: Cl.Cl.Cn1cc(NC(=O)c2cc(NC(=O)CNC(=N)N)cn2C)cc1C(=O)NCCC(=N)N
TESTED_ON: Human alphaherpesvirus 1
MEASUREMENT: 67%
--
MOLECULE: Cl.Cl.Cn1cc(NC(=O)c2cc(NC(=O)c3cc(NC=O)cn3C)cn2C)cc1C(=O)NCCC(=N)N
TESTED_ON: Human alphaherpesvirus 1
MEASUREMENT: 85%
--
MOLECULE: Cl.Cn1cc(NC(=O)c2cc(NC(=O)c3cc(NC(=O)CN=C(N)N)cn3C)cn2C)cc1C(=O)NCCC#N
TESTED_ON: Human alphaherpesvirus 1
MEASUREMENT: 68%
--
MOLECULE: Cl.Cl.Cn1cc(NC(=O)c2cc(NC(=O)c3cc(NC(=O)CN=C(N)N)cn3C)cn2C)cc1C(=O)NCCC(=N)N
TESTED_ON: Human alphaherpesvirus 1
MEASUREMENT: 84%

# evaluate next
Entry CC(CC(=N)N)NC(=O)c1cc(NC(=O)c2cc(NC(=O)c3cc(NC(=O)CN=C(N)N)cn3C)cn2C)cn1C.Cl.Cl (stereo not given) , system Human alphaherpesvirus 1: what inhibition at 50 µg/mL was measured?
73%

---

Reported inhibition by item:
# System: Nucleic Acid
# RUN_DESCRIPTION: In vitro ability to inhibit HSV DNA polymerase activity in vitro using activated calf thymus DNA as atemplate at dose 400 ug/mL
# Format: nucleic-acid assay
# ASSAY_SETUP: herpes simplex virus
Remember to follow the number with its unit.

Known results for molecules:
MOLECULE: Cl.Cl.Cn1cc(NC(=O)c2cc(NC(=O)c3cc(NC(=O)CN=C(N)N)cn3C)cn2C)cc1C(=O)NCCC(=N)N
TESTED_ON: Nucleic Acid
MEASUREMENT: 99%
--
MOLECULE: Cl.Cl.Cn1cc(NC(=O)c2cc(NC(=O)c3cc(NC=O)cn3C)cn2C)cc1C(=O)NCCC(=N)N
TESTED_ON: Nucleic Acid
MEASUREMENT: 99%
--
MOLECULE: Cl.Cl.Cn1cc(NC(=O)c2cc(NC(=O)CNC(=N)N)cn2C)cc1C(=O)NCCC(=N)N
TESTED_ON: Nucleic Acid
MEASUREMENT: 93%
--
MOLECULE: CC(CC(=N)N)NC(=O)c1cc(NC(=O)c2cc(NC(=O)c3cc(NC(=O)CN=C(N)N)cn3C)cn2C)cn1C.Cl.Cl (stereo unspecified)
TESTED_ON: Nucleic Acid
MEASUREMENT: 97%
--
MOLECULE: Cl.Cn1cc(NC(=O)c2cc(NC(=O)c3cc(NC(=O)CN=C(N)N)cn3C)cn2C)cc1C(=O)NCCC#N
TESTED_ON: Nucleic Acid
MEASUREMENT: 91%

# evaluate next
Value lookup for inhibition; key = Cl.Cl.Cn1cc(NC(=O)c2cc(NC(=O)c3cc(NC(=O)CN=C(N)N)cn3C)cn2C)cc1C(=O)NCC(=N)N
99%

---

Reported inhibition by item:
# Tested on: Nucleic Acid
# RUN_DESCRIPTION: In vitro ability to inhibit HSV DNA polymerase activity in vitro using activated calf thymus DNA as atemplate at dose 50 ug/mL
# Format: nucleic-acid assay
# ASSAY_SETUP: herpes simplex virus
Just the number please, in %, no unit attached.

COMPOUND: Cl.Cl.Cn1cc(NC(=O)c2cc(NC(=O)CNC(=N)N)cn2C)cc1C(=O)NCCC(=N)N [CONGOCIDINE]
TESTED_ON: Nucleic Acid
inhibition [%]: 61
--
COMPOUND: Cl.Cl.Cn1cc(NC(=O)c2cc(NC(=O)c3cc(NC=O)cn3C)cn2C)cc1C(=O)NCCC(=N)N
TESTED_ON: Nucleic Acid
inhibition [%]: 62
--
COMPOUND: CC(CC(=N)N)NC(=O)c1cc(NC(=O)c2cc(NC(=O)c3cc(NC(=O)CN=C(N)N)cn3C)cn2C)cn1C.Cl.Cl (stereo unspecified)
TESTED_ON: Nucleic Acid
inhibition [%]: 59
--
COMPOUND: Cl.Cn1cc(NC(=O)c2cc(NC(=O)c3cc(NC(=O)CN=C(N)N)cn3C)cn2C)cc1C(=O)NCCC#N
TESTED_ON: Nucleic Acid
inhibition [%]: 35

Value lookup for inhibition; key = Cl.Cl.Cn1cc(NC(=O)c2cc(NC(=O)c3cc(NC(=O)CN=C(N)N)cn3C)cn2C)cc1C(=O)NCC(=N)N
83

Value lookup for inhibition; key = Cl.Cl.Cn1cc(NC(=O)c2cc(NC(=O)c3cc(NC(=O)CN=C(N)N)cn3C)cn2C)cc1C(=O)NCCC(=N)N
64
